Numbers sourced from paper PMC5896266.

target: MMP-2 enzyme isolated from rat heart (Rattus norvegicus); construct: we used full-length, active MMP-2 enzymes isolated from healthy young adult rat hearts; assay: Gelatin zymography on cardiac MMP-2; settings: concentration labelled EC50 in Supplementary Figure 4; doses calculated according to IC doses in vitro
Sequence (P33436 110-662): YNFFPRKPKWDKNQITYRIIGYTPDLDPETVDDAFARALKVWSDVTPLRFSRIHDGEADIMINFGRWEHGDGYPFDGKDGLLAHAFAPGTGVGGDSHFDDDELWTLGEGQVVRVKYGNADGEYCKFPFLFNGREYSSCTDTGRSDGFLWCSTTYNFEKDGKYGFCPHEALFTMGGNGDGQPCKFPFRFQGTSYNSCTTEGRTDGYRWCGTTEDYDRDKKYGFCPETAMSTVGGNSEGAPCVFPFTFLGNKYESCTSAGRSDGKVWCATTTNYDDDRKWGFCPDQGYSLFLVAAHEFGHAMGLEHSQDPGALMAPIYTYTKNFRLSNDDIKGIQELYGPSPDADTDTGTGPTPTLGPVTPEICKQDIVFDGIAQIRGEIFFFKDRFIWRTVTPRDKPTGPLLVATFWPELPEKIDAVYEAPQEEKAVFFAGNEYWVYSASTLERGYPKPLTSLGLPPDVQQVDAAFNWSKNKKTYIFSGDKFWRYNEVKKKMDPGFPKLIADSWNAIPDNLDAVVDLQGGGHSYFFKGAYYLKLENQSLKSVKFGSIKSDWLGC
Recorded pEC50, one value per entry.
Quick note: pEC50 values are minus log10 of concentrations in mol/L.

Examples with answers:
Cc1ccc(CN(Cc2ccc(OCc3ccccc3)cc2)Cc2nc(C(=O)O)c[nH]2)cc1 4.80
O=C(O)c1c[nH]c(CN(Cc2ccc(F)cc2)Cc2ccc(OCc3ccccc3)cc2)n1 5.60
O=C(O)c1csc(CN(Cc2ccc(F)cc2)Cc2ccc(OCc3ccccc3)cc2)n1 4.74
O=C(O)c1csc(CN(Cc2ccc(F)cc2)Cc2ccc(OCc3cccnc3)cc2)n1 4.75
O=C(O)c1csc(CN(Cc2ccc(F)cc2)Cc2ccc(OCc3ccncc3)cc2)n1 5.05

// pEC50 value for `O=C(O)c1csc(CN(Cc2ccc(F)cc2)Cc2ccc(-c3ccccc3)cc2)n1` : 4.49
